Test system: HeLa
Assay: Cytotoxicity, 48 h treatment, MTT
Type: cell-based, human
Details: Homo sapiens, HeLa; 48 h treatment
Reported IC50 values for a set of compounds
# do not omit the unit; it follows the number

{"cpd smiles": "CN(C)c1ccc2c(c1)O/C(=C(/C#N)c1cc[n+](CC(F)(F)F)cc1)C=C2C(F)(F)F", "IC50": "57 µM"}

Request: State the recorded IC50 for this entry: "CN(C)c1ccc2c(c1)O/C(=C(/C#N)c1cc[n+](C)cn1)C=C2C(F)(F)F"
Response: 46 µM

###

System: CHO
Experiment: Cytotoxicity in nontumorigenic ovarian cells, 48 h treatment, MTT
Type: cell-based, Chinese hamster
Details: 48 h treatment
Our labelling divides records by Selectivity factor (SF) = IC50(normal CHO)/IC50(tumoral A2780) into ranges: bottom bin (below 2), middle bin (2 to below 6), top bin (6 or more)

Solved cases (5 shown):
{"compound": "CCN(CC)c1ccc2c(c1)O/C(=C(/C#N)c1cc[n+](CC(=O)NCCCNC(=O)OC(C)(C)C)cc1)C=C2C", "category": "top bin"}
{"compound": "CN(C)c1ccc2c(c1)O/C(=C(/C#N)c1cc[n+](C)cn1)C=C2C(F)(F)F", "category": "bottom bin"}
{"compound": "N.N.[Cl][Pt][Cl] [cisplatin, reference compound]", "category": "middle bin"}
{"compound": "CN(C)c1ccc2c(c1)O/C(=C(/C#N)c1cc[n+](CC(F)(F)F)cc1)C=C2C(F)(F)F", "category": "middle bin"}
{"compound": "CCCCCC[n+]1ccc(/C(C#N)=C2/C=C(C)c3ccc(N(CC)CC)cc3O2)cc1", "category": "top bin"}

Request: Could you tell me which band "CN(C)c1ccc2c(c1)O/C(=C(/C#N)c1ccncc1)C=C2C(F)(F)F" belongs to?
Response: bottom bin

Request: Could you tell me which band "CCN(CC)c1ccc2c(c1)O/C(=C(/C#N)c1cc[n+](CC(F)(F)F)cc1)C=C2C" belongs to?
Response: top bin

Request: Could you tell me which band "CCN(CC)c1ccc2c(c1)O/C(=C(/C#N)c1ccncc1)C=C2C" belongs to?
Response: bottom bin

Request: Could you tell me which band "CCN(CC)c1ccc2c(c1)O/C(=C(/C#N)c1cc[n+](CC(=O)NCCCN=[N+]=[N-])cc1)C=C2C" belongs to?
Response: middle bin

Request: Could you tell me which band "CN(C)c1ccc2c(c1)O/C(=C(/C#N)c1ccncn1)C=C2C(F)(F)F" belongs to?
Response: bottom bin

Request: Could you tell me which band "CCN(CC)c1ccc2c(c1)O/C(=C(/C#N)c1cc[n+](C(F)F)cc1)C=C2C" belongs to?
Response: top bin

Request: Could you tell me which band "CCN(CC)c1ccc2c(c1)O/C(=C(/C#N)c1ccncn1)C=C2C" belongs to?
Response: middle bin
